molecular target: UniProt P28347; experiment: TEAD lipid pocket TR-FRET (Lipid HTRF) probe competition assay; format: binding; details: 4 hours incubation with compound; read-out: Lipid HTRF TEAD1 IC50
Sequence (P28347 whole entry, species assumed): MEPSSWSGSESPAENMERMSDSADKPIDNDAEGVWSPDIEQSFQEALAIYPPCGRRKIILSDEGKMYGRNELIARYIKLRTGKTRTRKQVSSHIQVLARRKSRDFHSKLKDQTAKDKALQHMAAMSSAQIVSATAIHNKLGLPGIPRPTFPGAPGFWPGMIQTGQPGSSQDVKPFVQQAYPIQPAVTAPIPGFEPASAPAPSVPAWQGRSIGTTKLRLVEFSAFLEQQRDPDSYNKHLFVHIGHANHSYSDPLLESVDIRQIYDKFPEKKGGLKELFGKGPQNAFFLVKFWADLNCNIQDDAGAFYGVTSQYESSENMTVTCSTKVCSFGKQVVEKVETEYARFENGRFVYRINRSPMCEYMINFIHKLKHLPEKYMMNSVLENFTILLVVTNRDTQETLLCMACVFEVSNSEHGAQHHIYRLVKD
pIC50: −log10 of the molar value.
Answer Not fulfilled if pIC50 is under 7, and Fulfilled if it is 7 or more.

{"Compound string": "C=C(CNc1cc(-c2ncc(C(C)C)s2)c2c(c1C#N)CCO2)C(=O)O", "Group": "Not fulfilled"}

Evaluate C=C(CNc1cc(-c2nc(C(C)C)cs2)c2c(c1C#N)CCO2)C(=O)NO : pIC50 at minimum 7?
Not fulfilled

// inclusive: pIC50 at least 7? input: C=C(CNc1cc(-c2ccc(S(F)(F)(F)(F)F)cc2)c2ncsc2c1C#N)C(=O)NO
Not fulfilled

From: patent US11787775B2
